Data origin, for the record: patent US9505749B2

Target: PARP2 (Homo sapiens (Human))
Sequence (Q9UGN5 whole entry): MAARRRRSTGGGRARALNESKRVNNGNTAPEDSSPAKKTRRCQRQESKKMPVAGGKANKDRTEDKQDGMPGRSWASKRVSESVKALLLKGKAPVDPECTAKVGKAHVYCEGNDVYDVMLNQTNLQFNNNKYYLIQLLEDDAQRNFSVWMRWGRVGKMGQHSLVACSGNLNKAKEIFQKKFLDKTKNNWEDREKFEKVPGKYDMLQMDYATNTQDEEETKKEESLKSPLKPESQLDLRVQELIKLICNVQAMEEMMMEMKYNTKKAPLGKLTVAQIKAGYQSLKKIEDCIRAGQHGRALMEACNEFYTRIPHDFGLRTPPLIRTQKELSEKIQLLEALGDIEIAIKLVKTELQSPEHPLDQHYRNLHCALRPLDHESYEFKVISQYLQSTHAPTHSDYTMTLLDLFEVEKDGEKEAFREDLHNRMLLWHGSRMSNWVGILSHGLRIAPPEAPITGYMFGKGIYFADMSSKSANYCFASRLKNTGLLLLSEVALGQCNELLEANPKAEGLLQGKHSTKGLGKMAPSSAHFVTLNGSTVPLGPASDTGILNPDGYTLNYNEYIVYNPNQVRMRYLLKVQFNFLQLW
Measurement Type: IC50 (nM)
Expressed in nM, but write only the number.

Per the record, O=C(CCCc1nc2ccccc2c(=O)[nH]1)N[C@H]1CC[C@H](Oc2ccc(Cl)cc2)CC1 [Example 79] has IC50 of 292

Per the record, O=C(CCCc1nc2ccccc2c(=O)[nH]1)N1CCC(c2nnc(-c3ccc(Cl)cc3)o2)CC1 [Example 4] has IC50 of 961

Per the record, O=C(CCCc1nc2ccccc2c(=O)[nH]1)N1CCC(n2c(=O)[nH]c3cc(C(F)(F)F)ccc32)CC1 [Example 52, trifluoroacetic acid] has IC50 of 1020

Per the record, O=C(CCSc1nc2ccccc2c(=O)[nH]1)N1CCN(c2n[nH]c3ccccc23)CC1 [Example 94] has IC50 of 89.5

Per the record, COc1ccc2[nH]c(=O)n(C3CCN(C(=O)CCCc4nc5ccccc5c(=O)[nH]4)CC3)c2c1 [Example 34] has IC50 of 431

Per the record, O=C(CCc1nc2ccccc2c(=O)[nH]1)N[C@H]1CC[C@H](c2nnc(-c3ccc(F)cc3)o2)CC1 [Example 127] has IC50 of 2310

* * *

Molecular target: 6×HIS-tankyrase1 (1091-1325) (Homo sapiens (Human))
Sequence (O95271 1091-1325): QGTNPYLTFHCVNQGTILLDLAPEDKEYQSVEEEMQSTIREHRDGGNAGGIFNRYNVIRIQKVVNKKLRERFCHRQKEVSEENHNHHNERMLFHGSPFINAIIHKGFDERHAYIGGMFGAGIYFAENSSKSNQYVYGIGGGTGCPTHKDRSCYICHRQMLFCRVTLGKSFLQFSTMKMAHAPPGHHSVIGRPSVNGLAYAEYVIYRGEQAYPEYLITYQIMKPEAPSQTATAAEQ
Experiment: Tankyrase 1 biochemical assay (AlphaLisa, PARsylation)
Details: 400 nM NAD, 60 minutes at RT; read-out: TNKS1 IC50
Label true (1) when IC50 < 5 nM; otherwise false (0).

A record lists O=C(CCCc1nc2ccccc2c(=O)[nH]1)N1CCC(c2nnc(-c3ccccn3)o2)CC1 . Is its IC50 below 5 nM? false (0)

A record lists O=C(CCCc1nc2ccccc2c(=O)[nH]1)N[C@H]1CC[C@H](c2nnc(-c3ccncc3)o2)CC1 . Is its IC50 below 5 nM? true (1)

A record lists Cc1cc(=O)[nH]c(SCCC(=O)N[C@H]2CC[C@H](c3nnc(-c4ccccc4)o3)CC2)n1 . Is its IC50 below 5 nM? true (1)

A record lists Cc1cccc(-c2nnc(C3CCN(C(=O)CCCc4nc5ccccc5c(=O)[nH]4)CC3)o2)c1 . Is its IC50 below 5 nM? false (0)

A record lists COc1cccc(-c2nnc([C@H]3CC[C@H](NC(=O)CCCc4nc5ccccc5c(=O)[nH]4)CC3)o2)c1 . Is its IC50 below 5 nM? true (1)

A record lists O=C(CCCc1nc2ccccc2c(=O)[nH]1)N1CCC(c2nnc(-c3ccc(F)cc3)o2)CC1 . Is its IC50 below 5 nM? false (0)

A record lists O=C(CCCc1nc2ccccc2c(=O)[nH]1)N[C@H]1CC[C@H](Oc2cccnc2)CC1 . Is its IC50 below 5 nM? false (0)

A record lists O=C(CCSc1nc2ccccc2c(=O)[nH]1)N[C@H]1CC[C@H](c2nnc(-c3ccc(Cl)cc3)o2)CC1 . Is its IC50 below 5 nM? true (1)

A record lists O=C(CCCc1nc2ccccc2c(=O)[nH]1)N1CCN(c2n[nH]c3ccccc23)CC1 . Is its IC50 below 5 nM? true (1)

A record lists Cc1ccc(-c2nnc(C3CCN(C(=O)CCCc4nc5ccccc5c(=O)[nH]4)CC3)o2)cc1 . Is its IC50 below 5 nM? false (0)

A record lists O=C(CCSc1nc2ccccc2c(=O)[nH]1)N[C@H]1CC[C@H](c2nnc(-c3ccc(F)cc3)o2)CC1 . Is its IC50 below 5 nM? true (1)

A record lists O=C(CCCc1nc2ccccc2c(=O)[nH]1)N1CCC(n2c(=O)[nH]c3ccccc32)CC1 . Is its IC50 below 5 nM? false (0)

A record lists O=C(CCc1nc2ccccc2c(=O)[nH]1)N1CCC(c2nnc(-c3ccccc3)o2)CC1 . Is its IC50 below 5 nM? false (0)

A record lists O=C(CCSCc1nc2ccccc2c(=O)[nH]1)N[C@H]1CC[C@H](c2nnc(-c3ccccc3)o2)CC1 . Is its IC50 below 5 nM? false (0)

A record lists O=C(CCCc1nc2ccccc2c(=O)[nH]1)N1CCC(n2cc(-c3ccccc3)[nH]c2=O)CC1 . Is its IC50 below 5 nM? false (0)

A record lists N#Cc1ccc(-c2nnc(C3CCN(C(=O)CCCc4nc5ccccc5c(=O)[nH]4)CC3)o2)cc1 . Is its IC50 below 5 nM? false (0)

A record lists N#Cc1ccc2c(c1)[nH]c(=O)n2[C@H]1CC[C@H](NC(=O)CCSc2nc3ccccc3c(=O)[nH]2)CC1 . Is its IC50 below 5 nM? true (1)

A record lists O=C(CCSc1cc(=O)n2ccccc2n1)N[C@H]1CC[C@H](c2nnc(-c3ccccc3)o2)CC1 . Is its IC50 below 5 nM? true (1)

A record lists O=C(CCc1nc2ccccc2c(=O)[nH]1)N[C@H]1CC[C@H](n2c(=O)[nH]c3ccccc32)CC1 . Is its IC50 below 5 nM? true (1)

A record lists Cc1ccc2c(c1)[nH]c(=O)n2C1CCN(C(=O)CCCc2nc3ccccc3c(=O)[nH]2)CC1 . Is its IC50 below 5 nM? true (1)

A record lists COc1ccc2[nH]c(=O)n(C3CCN(C(=O)CCCc4nc5ccccc5c(=O)[nH]4)CC3)c2c1 . Is its IC50 below 5 nM? true (1)
